# Tested on: human red blood cells
# Assay type: cell-based
Ends that are not written are not given here.
Measurement kind: Hemolytic activity SC50

INSERT INTO measurements (substance, reported_result) VALUES
  ('LFNNYITAALKLLEKLYKV-NH2 [Hs04]', '64 µM'),
  ('GLWSTIKQKGKEAAIAAAKAAGQAALGAL-NH2 [DS01]', '> 128 µM'),
  ('GFKDLLKGAAKALVKTVLF-NH2 [Asc-8]', '32 µM'),
  ('LKMLGMLFHNIRNILKTV-NH2 [Hs01]', '> 128 µM'),
  ('KWAVRIIRKFIKGFIS-NH2 [Hs02]', '> 128 µM'),
  ('FLREFHKWIERVVGWLGKVF-NH2 [Hs03]', '> 128 µM');
